# Plant response rating, Deadnettle annotations
System: deadnettle (henbit deadnettle, Lamium amplexicaule)
measurement-protocol: Test D controlled growth environment herbicide test, pre- and postemergence
Assay type: in vivo
applied-conditions: postemergence, 62 g ai/ha; scale 0 to 100, 0 no effect, 100 complete control
// no unit string in output, number only

>>> print(df.to_string())
                               given_smiles                             tested_system  numeric_readout
0    Cc1cc(C)c2ccccc2c1-c1c(O)c(C)nn(C)c1=O  deadnettle (henbit deadnettle, Lamium amplexicaule)              100
1  COC(=O)Oc1c(C)nn(C)c(=O)c1-c1c(C)sc2ccc(C)cc12  deadnettle (henbit deadnettle, Lamium amplexicaule)               25
2     Cc1nn(C)c(=O)c(-c2ccc(F)c3ccccc23)c1O  deadnettle (henbit deadnettle, Lamium amplexicaule)              100

Report Plant response rating, Deadnettle, nothing else, for this compound: Cc1ccc2sc(C)c(-c3c(OC(=O)OC(C)C)c(C)nn(C)c3=O)c2c1
15

Report Plant response rating, Deadnettle, nothing else, for this compound: CCc1sc2c(C)cc(C)cc2c1-c1c(O)c(C)nn(C)c1=O
90

---

# Plant response rating, Foxtail, Giant annotations
System: foxtail, giant (giant foxtail, Setaria faberii)
measurement-protocol: Test C greenhouse herbicide test, pre- and postemergence
Type: in vivo
applied-conditions: Preemergence, 62 g ai/ha; scale 0 to 100, 0 is no effect, 100 is complete control
From the text: […]
// no unit string in output, number only

Please review the following examples before continuing.
In [3]: df
Out[3]:
                               given_smiles  numeric_readout
0  CCC(=O)Oc1c(C)nn(C)c(=O)c1-c1ccc(Br)c2ccccc12               75
1  COC(=O)Oc1c(C)nn(C)c(=O)c1-c1c(C)sc2ccc(C)cc12               85
2    Cc1nn(C)c(=O)c(-c2ccc(Cl)c3ccccc23)c1O               65
3  Cc1ccc2sc(Br)c(-c3c(O)c(C)nn(C)c3=O)c2c1               85
4  CC(=O)Oc1c(C)nn(C)c(=O)c1-c1c(C)cc(C)c2ccccc12               35

Then this compound:
Report Plant response rating, Foxtail, Giant, nothing else, for this compound: Cc1ccc2ccccc2c1-c1c(OC(=O)OC(C)C)c(C)nn(C)c1=O
70

---

# Plant response rating, Ryegrass, Italian annotations
Test system: ryegrass, Italian (Italian ryegrass, Lolium multiflorum)
measurement-protocol: Test A greenhouse herbicide test, pre- and postemergence
Type: in vivo
applied-conditions: Postemergence, 125 g ai/ha; 0 to 100 scale where 0 is no effect and 100 is complete control
// no unit string in output, number only

Please review the following examples before continuing.
                               given_smiles                             tested_system  numeric_readout
0  Cc1ccc2sc(C)c(-c3c(OC(=O)C(C)(C)C)c(C)nn(C)c3=O)c2c1  ryegrass, Italian (Italian ryegrass, Lolium multiflorum)               60
1     Cc1nn(C)c(=O)c(-c2cccc3ccc(I)cc23)c1O  ryegrass, Italian (Italian ryegrass, Lolium multiflorum)               60

Report Plant response rating, Ryegrass, Italian, nothing else, for this compound: CCCC(=O)Oc1c(C)nn(C)c(=O)c1-c1c(CC)sc2ccc(C)cc12
60
